protocol notes: Plasma pharmacokinetics after oral administration of YCHT in control (normal) rats, UHPLC-MS/MS
Type: in vivo, Sprague-Dawley rats
cond: Sprague-Dawley, rat; control rats, oral YCHT 60 g/kg, plasma, n = 6; read-out: CLz/F (converted)
measured property: CL/F (mL/min/kg)
Answers are plain numbers, in mL/min/kg.

Please give the measured CL/F for this molecule: COc1cc2ccc(=O)oc2cc1OC
73.7

* * *

protocol notes: Plasma pharmacokinetics after oral administration of YCHT in control (normal) rats, UHPLC-MS/MS
Assay type: in vivo, Sprague-Dawley rats
cond: control rats, oral YCHT 60 g/kg, plasma, n = 6
Field: AUC0–t. Provide a value for each of the molecules that follow.
Numbers only, in ug/L∗h.

Examples with their reported AUC0–t follow.
[
  {
    "molecule": "COc1cc2ccc(=O)oc2cc1OC",
    "measured property": "AUC0–t",
    "units": "ug/L∗h",
    "observed value": 2282.77
  },
  {
    "molecule": "COc1cc(O)c2c(c1)C(=O)c1cc(C)cc(O)c1C2=O",
    "measured property": "AUC0–t",
    "units": "ug/L∗h",
    "observed value": 21.05
  },
  {
    "molecule": "COc1cc2ccc(=O)oc2cc1O",
    "measured property": "AUC0–t",
    "units": "ug/L∗h",
    "observed value": 5.86
  },
  {
    "molecule": "O=C1c2cccc(O)c2C(=O)c2c(O)cc(CO)cc21",
    "measured property": "AUC0–t",
    "units": "ug/L∗h",
    "observed value": 54.61
  }
]

I have 3 molecules here; please give me AUC0–t for each one.
1. Cc1cc(O)c2c(c1)C(=O)c1cc(O)cc(O)c1C2=O
2. O=C(O)c1cc(O)c2c(c1)C(=O)c1cccc(O)c1C2=O
3. COC(=O)C1=CO[C@@H](O[C@@H]2O[C@H](CO)[C@@H](O)[C@H](O)[C@H]2O)[C@@H]2C(CO)=CC[C@H]12 [Geniposide]

[10.41, 2031.40, 1940.63]

* * *

protocol notes: Plasma pharmacokinetics after oral administration of YCHT in model (CCl4-induced acute liver injury) rats, UHPLC-MS/MS
cond: Fr = (AUCmodel/AUCcontrol)∗100%, oral YCHT 60 g/kg
Field: Fr (relative bioavailability). Provide a value for each of the compounds that follow.
Give bare numbers, in %.

Examples with their reported Fr (relative bioavailability) follow.
[
  {
    "compound": "COc1cc2ccc(=O)oc2cc1O",
    "Fr (relative bioavailability) [%]": 123.38
  },
  {
    "compound": "COC(=O)C1=CO[C@@H](O[C@@H]2O[C@H](CO)[C@@H](O)[C@H](O)[C@H]2O)[C@@H]2C(CO)=CC[C@H]12 [Geniposide]",
    "Fr (relative bioavailability) [%]": 257.67
  },
  {
    "compound": "O=C(O)c1cc(O)c2c(c1)C(=O)c1cccc(O)c1C2=O",
    "Fr (relative bioavailability) [%]": 268.45
  }
]

I have 3 compounds here; please give me Fr (relative bioavailability) for each one.
1. O=C1c2cccc(O)c2C(=O)c2c(O)cc(CO)cc21
2. COc1cc2ccc(=O)oc2cc1OC
3. COc1cc(O)c2c(c1)C(=O)c1cc(C)cc(O)c1C2=O

1. 281.30
2. 227.64
3. 213.68
